Origin of the recorded values: BigSolDB 2.1

# study-conditions: in methanol, 281.79 K
endpoint-name: solubility (mole fraction)

**Query** Provide one value: measured solubility (mole fraction) of `CC1=CC(=O)[N-]S(=O)(=O)O1.[K+]`
**Result** 0.000173

---

# study-conditions: in water, 317.3 K
endpoint-name: solubility (mole fraction)
One number for each entry.

**Query** Given the compound `CC1=CC(=O)[N-]S(=O)(=O)O1.[K+]` , write its reported solubility (mole fraction).
**Result** 0.000419

---

# study-conditions: in water, 304.01 K
endpoint-name: solubility (mole fraction)
One number for each entry.

**Query** Supply recorded solubility (mole fraction) for `CC1=CC(=O)[N-]S(=O)(=O)O1.[K+]` here.
**Result** 0.000314

---

# study-conditions: in ethanol, 302.65 K
endpoint-name: solubility (mole fraction)
Give bare numbers.

**Query** Write down solubility (mole fraction) measured for item `CC1=CC(=O)[N-]S(=O)(=O)O1.[K+]`
**Result** 0.000259

---

# study-conditions: in methanol, 319.3 K
endpoint-name: solubility (mole fraction)
Answers are plain numbers.

**Query** Write down solubility (mole fraction) measured for item `CC1=CC(=O)[N-]S(=O)(=O)O1.[K+]`
**Result** 0.000371

---

# study-conditions: in methanol, 315.47 K
endpoint-name: solubility (mole fraction)

**Query** Output measured solubility (mole fraction) for this item: `CC1=CC(=O)[N-]S(=O)(=O)O1.[K+]`
**Result** 0.000341

---

# study-conditions: in water, 281.23 K
endpoint-name: solubility (mole fraction)
Answers are plain numbers.

**Query** Check the records and state solubility (mole fraction) for `CC1=CC(=O)[N-]S(=O)(=O)O1.[K+]`
**Result** 0.000167

---

# study-conditions: in ethanol, 317.87 K
endpoint-name: solubility (mole fraction)
Answers are plain numbers.

**Query** Provide solubility (mole fraction) value for the following compound: `CC1=CC(=O)[N-]S(=O)(=O)O1.[K+]`
**Result** 0.000496

---

# study-conditions: in water, 307.07 K
endpoint-name: solubility (mole fraction)
Answers are plain numbers.

**Query** Look up and state reported solubility (mole fraction) for `CC1=CC(=O)[N-]S(=O)(=O)O1.[K+]`
**Result** 0.000338
